Tested on: U2OS
assay procedure: Multiplex assay against U2OS
Assay type: toxicity, cell-based
condition details: human, 48 h, 1 µM, compound concentration 1 uM, replicate 2
outcome measure: Total Cell Count

molecule	tgt	Total Cell Count
Cl.Cl.Nc1ncnc2c1c(-c1cccc(OCc3ccccc3)c1)cn2[C@H]1C[C@@H](CN2CCC2)C1	U2OS	55
Cc1cc2c(cc1N1C(=O)c3cccc4c(CCCO)ccc(c34)C1=O)n(C)c(=O)n2C	U2OS	103
CCn1c(-c2nonc2N)nc2cnc(Oc3cccc(NC(=O)c4ccc(OCCN5CCOCC5)cc4)c3)cc21 [GSK-269962A]	U2OS	82
Cc1nc(Cc2cccc(C(F)(F)F)c2)sc1-c1ccc(C(N)=O)nc1 [TP-024n]	U2OS	122
CCc1cc2c(cc1CC)CC(NC[C@H](O)c1ccc(O)c3[nH]c(=O)ccc13)C2	U2OS	69

In: I am curious: what Total Cell Count value has been reported for CCC(=O)O[C@]1(C(=O)SCF)[C@H](C)C[C@H]2[C@@H]3C[C@H](F)C4=CC(=O)C=C[C@]4(C)[C@@]3(F)[C@@H](O)C[C@@]21C [FLUTICASONE PROPIONATE] ?
Out: 113

In: I am curious: what Total Cell Count value has been reported for COc1ccc(NS(=O)(=O)c2sc3ccc(Cl)cc3c2C)cc1N1CCNCC1.Cl ?
Out: 73

In: I am curious: what Total Cell Count value has been reported for Nc1nc2c(c(N3CCNCC3)n1)CCC1=C2[C@@H]2CCCC[C@@H]2O1 ?
Out: 113

---

Tested on: Fibroblast
assay procedure: Multiplex assay against human fibroblast
Assay type: toxicity, cell-based
condition details: 12 h, 1 µM, compound concentration 1 uM, replicate 2
The label condition met is reserved for Population Apoptotic (%) strictly under 50%; condition not met covers values equal to or above it.

Sample answers from the record:
> print(dat)
                                   compound         tgt   class.assignment
1  CN(C)CCOc1ccc(-c2nc(-c3ccncc3)c(-c3ccc4c(c3)CC/C4=N\O)[nH]2)cc1 [SB590885]  Fibroblast  condition not met
2  N#Cc1cnc(Nc2cc(NC[C@H]3CNCCO3)c(C(F)(F)F)cn2)cn1 [SRA-737]  Fibroblast      condition met

Turning now to a further record.
In: Here's an entry: CCOc1cc(N2CCC(O)CC2)ccc1Nc1ncc2c(n1)N(C1CCCC1)CCC(=O)N2C . Is its Population Apoptotic (%) below 50%?
Out: condition met

---

System: HEK-293T
assay procedure: Multiplex assay against HEK293T
Assay type: toxicity, cell-based
condition details: human, 12 h, 1 µM, compound concentration 1 uM, replicate 1
outcome measure: Population Mitochondria Different-Phenotype (%)
Write the value in % as a bare number.

Completed entries (count: 2):
> print(dat)
                                   compound  value.units  readout.number
1  Cc1nc(Cc2cccc(C(F)(F)F)c2)sc1-c1ccc(C(N)=O)nc1 [TP-024n]            %              65
2  CCCn1c(=O)c2[nH]c(C34CC5CC(CC3C5)C4)nc2n(CCC)c1=O [ROLOFYLLINE]            %              84

In: I am curious: what Population Mitochondria Different-Phenotype (%) value has been reported for Nc1ccc(C(=O)Nc2cccc(-c3nc(N4CCOCC4)c4oc5ncccc5c4n3)c2)cn1 ?
Out: 94

In: I am curious: what Population Mitochondria Different-Phenotype (%) value has been reported for CN(C)C/C=C/C(=O)Nc1cc2c(Nc3ccc(F)c(Cl)c3)ncnc2cc1O[C@H]1CCOC1.O=C(O)/C=C\C(=O)O.O=C(O)/C=C\C(=O)O [AFATINIB DIMALEATE] ?
Out: 4

In: I am curious: what Population Mitochondria Different-Phenotype (%) value has been reported for COc1cc(N2CCC(N(C)C)CC2)ccc1Nc1ncc(Cl)c(Nc2ccccc2P(C)(C)=O)n1 ?
Out: 9

In: I am curious: what Population Mitochondria Different-Phenotype (%) value has been reported for CCOc1cc2ncc(C#N)c(Nc3ccc(OCc4cccc(F)c4)c(Cl)c3)c2cc1NC(=O)/C=C/CN(C)C [HKI-357] ?
Out: 8

In: I am curious: what Population Mitochondria Different-Phenotype (%) value has been reported for CC(=O)c1cc(-c2cc(C(=O)NC3CC3)ccc2C)c2ncccn12 ?
Out: 59

In: I am curious: what Population Mitochondria Different-Phenotype (%) value has been reported for CNc1oc(-c2cccc3ccccc23)nc1C#N ?
Out: 62

---

Tested on: U2OS
assay procedure: Multiplex assay against U2OS
Assay type: toxicity, cell-based
condition details: human, 12 h, 1 µM, compound concentration 1 uM, replicate 2
Assign satisfied whenever Population Hoechst High Intensity Objects (%) does not fall below 10%; assign not satisfied whenever it does.

> print(dat)
                                   compound  class.assignment
1  CCn1c(-c2nonc2N)nc2cnc(Oc3cccc(NC(=O)c4ccc(OCCN5CCOCC5)cc4)c3)cc21 [GSK-269962A]     not satisfied

In: Is the recorded value of Population Hoechst High Intensity Objects (%) equal to or greater than 10% for this compound? COc1cc2c(Nc3ccc(NC(=O)c4ccccc4)cc3)ncnc2cc1OCCCN1CCOCC1
Out: satisfied

In: Is the recorded value of Population Hoechst High Intensity Objects (%) equal to or greater than 10% for this compound? CNC(=O)c1cc(Oc2ccc(NC(=O)Nc3cc(C(C)(C)C)nn3-c3ccc4ncccc4c3)c(F)c2)ccn1 [REBASTINIB]
Out: not satisfied

In: Is the recorded value of Population Hoechst High Intensity Objects (%) equal to or greater than 10% for this compound? CN(C)C/C=C/C(=O)Nc1cc2c(Nc3ccc(F)c(Cl)c3)ncnc2cc1O[C@H]1CCOC1.O=C(O)/C=C\C(=O)O.O=C(O)/C=C\C(=O)O [AFATINIB DIMALEATE]
Out: satisfied

In: Is the recorded value of Population Hoechst High Intensity Objects (%) equal to or greater than 10% for this compound? CNC(=O)c1nn(C)c2c1C(C)(C)Cc1cnc(Nc3ccc(N4CCN(C)CC4)cc3)nc1-2 [MILCICLIB]
Out: satisfied

In: Is the recorded value of Population Hoechst High Intensity Objects (%) equal to or greater than 10% for this compound? CC(C)Oc1ccc(C(=O)N[C@H](CNC(=O)CN(C)C)Cc2ccc(-c3cn4cccc([C@H](C)O)c4n3)cc2)cc1Cl [GSK-923295A]
Out: satisfied

In: Is the recorded value of Population Hoechst High Intensity Objects (%) equal to or greater than 10% for this compound? Nc1nc2c(c(N3CCNCC3)n1)CCC1=C2[C@@H]2CCCC[C@@H]2O1
Out: satisfied

In: Is the recorded value of Population Hoechst High Intensity Objects (%) equal to or greater than 10% for this compound? N#Cc1cnc(Nc2cc(NC[C@H]3CNCCO3)c(C(F)(F)F)cn2)cn1 [SRA-737]
Out: not satisfied

---

Each entry below lists one item and its recorded Population Healthy Nuclei (%) value.
System: U2OS
assay procedure: Multiplex assay against U2OS
Assay type: toxicity, cell-based
condition details: human, 48 h, 10 µM, compound concentration 10 uM, replicate 2
Write the value in % as a bare number.

compound	Population Healthy Nuclei (%)
CCn1c(-c2nonc2N)nc2cnc(Oc3cccc(NC(=O)c4ccc(OCCN5CCOCC5)cc4)c3)cc21 [GSK-269962A]	59
Cc1nc(Cc2cccc(C(F)(F)F)c2)sc1-c1ccc(C(N)=O)nc1 [TP-024n]	69
Cl.Cl.Nc1ncnc2c1c(-c1cccc(OCc3ccccc3)c1)cn2[C@H]1C[C@@H](CN2CCC2)C1	38
CCC(=O)O[C@]1(C(=O)SCF)[C@H](C)C[C@H]2[C@@H]3C[C@H](F)C4=CC(=O)C=C[C@]4(C)[C@@]3(F)[C@@H](O)C[C@@]21C [FLUTICASONE PROPIONATE]	85
CNc1oc(-c2cccc3ccccc23)nc1C#N	14
Cc1cc2c(cc1N1C(=O)c3cccc4c(CCCO)ccc(c34)C1=O)n(C)c(=O)n2C	45
CC(=O)c1cc(-c2cc(C(=O)NC3CC3)ccc2C)c2ncccn12	73
CC(C)Oc1ccc(C(=O)N[C@H](CNC(=O)CN(C)C)Cc2ccc(-c3cn4cccc([C@H](C)O)c4n3)cc2)cc1Cl [GSK-923295A]	43

In: I am curious: what Population Healthy Nuclei (%) value has been reported for Nc1ccc(C(=O)Nc2cccc(-c3nc(N4CCOCC4)c4oc5ncccc5c4n3)c2)cn1 ?
Out: 8

In: I am curious: what Population Healthy Nuclei (%) value has been reported for COc1cc2c(NC3CCN(C(C)C)CC3)nc(N3CCC(F)(F)CC3)nc2cc1OCCCN1CCCC1 ?
Out: 63

In: I am curious: what Population Healthy Nuclei (%) value has been reported for CCc1cc2c(cc1CC)CC(NC[C@H](O)c1ccc(O)c3[nH]c(=O)ccc13)C2 [INDACATEROL] ?
Out: 53

In: I am curious: what Population Healthy Nuclei (%) value has been reported for C1=N/C2=N/c3ccc(OCCN4CCCC4)c(c3)COC/C=C\COCc3cccc(c3)C(=C1)N2 ?
Out: 33
